# Test system: Adenosine receptor A2a (Homo sapiens)
# Sequence (P29274 whole entry): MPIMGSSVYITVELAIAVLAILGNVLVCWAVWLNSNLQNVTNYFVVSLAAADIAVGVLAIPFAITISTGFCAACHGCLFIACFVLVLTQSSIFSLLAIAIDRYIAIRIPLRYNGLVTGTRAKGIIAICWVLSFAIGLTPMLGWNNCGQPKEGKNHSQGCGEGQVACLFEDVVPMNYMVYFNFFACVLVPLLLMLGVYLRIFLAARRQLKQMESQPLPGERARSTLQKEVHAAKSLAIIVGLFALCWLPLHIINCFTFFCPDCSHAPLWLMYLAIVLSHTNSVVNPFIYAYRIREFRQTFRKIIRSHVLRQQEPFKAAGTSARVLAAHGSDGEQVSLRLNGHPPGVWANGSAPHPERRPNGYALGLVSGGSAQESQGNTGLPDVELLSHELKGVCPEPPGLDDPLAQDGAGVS
# Experiment notes: Binding affinity towards human recombinant adenosine A2A receptor by displacement of [3H]SCH-58261 radioligand.
Threshold 100 nM. Ki below it: MET. Ki at it or above: NOT MET.

Hello, is Ki of the following compound strictly smaller than 100 nM? `COc1cccc(-c2n[nH]c(Cc3cccc(Br)c3)n2)c1`
MET

Note, next up: `COc1cccc(-c2n[nH]c(Cc3ccccc3Br)n2)c1`
MET

Note, next up: `COc1cccc(-c2n[nH]c(Cc3ccc(Cl)c(Cl)c3)n2)c1`
MET

Note, next up: `c1cc(CN2CCCC2)cc(-c2n[nH]c(-c3ccc4c(c3)OCCO4)n2)c1`
NOT MET

Note, next up: `COc1cccc(O)c1/C=N/N=C(\S)Cc1ccccc1`
NOT MET

Note, next up: `Clc1ccc(Cc2nnc(-c3cnccn3)[nH]2)cc1Cl`
MET

Note, next up: `COc1cccc(-c2n[nH]c(Cc3cccc([N+](=O)[O-])c3)n2)c1`
MET

Note, next up: `COc1cccc(-c2n[nH]c(Cc3cccc(F)c3F)n2)c1`
MET

Note, next up: `COc1cccc(-c2n[nH]c(CCc3ccc(Cl)c(Cl)c3)n2)c1`
NOT MET

Note, next up: `S/C(Cc1ccccc1)=N\N=C\c1cccnc1`
MET

Note, next up: `S/C(Cc1ccccc1)=N\N=C\c1ccccc1`
NOT MET

Note, next up: `COc1cc(/C=N/N=C(\S)Cc2ccccc2)c(O)c(OC)c1`
NOT MET

Note, next up: `Oc1ccccc1-c1n[nH]c(-c2ccccc2)n1`
NOT MET

Note, next up: `COc1cccc(-c2n[nH]c(CC3CCCCC3)n2)c1`
NOT MET

Note, next up: `COc1cccc(-c2nc(Cc3ccc(C)c(C)c3)n[nH]2)c1`
MET

Note, next up: `COc1ccc(O)c(/C=N/N=C(\S)Cc2ccccc2)c1`
MET

Note, next up: `O=[N+]([O-])c1ccc(O)c(/C=N/N=C(\S)Cc2ccccc2)c1`
MET

Note, next up: `COc1cccc(-c2nnc(-c3ccc(Cl)c(Cl)c3)[nH]2)c1`
NOT MET

Note, next up: `Oc1ccc(OC(F)(F)F)cc1/C=N/N=C(\S)Cc1ccccc1`
NOT MET

Note, next up: `COc1cccc(-c2nnc(Cc3ccc(F)c(F)c3)[nH]2)c1`
MET

Note, next up: Clc1ccc(Cc2nnc(C3CCCNC3)[nH]2)cc1Cl (centres undefined)
NOT MET

Note, next up: `COc1cccc(-c2nnc(CN3CCCCC3)[nH]2)c1`
NOT MET

Note, next up: `COc1cccc(/C=N/N=C(\S)Cc2ccccc2)c1O`
NOT MET
